Reference for the values: patent US11840528B2

# assayed-system: h-GABA-A α5β3γ2 (Homo sapiens, UniProt P18507+P31644)
# procedure-text: [3H]flumazenil competition binding assay, membranes of HEK293 cells expressing GABAA receptors
# details: displacement of [3H]-Flumazenil 0.5 nM, HEK293 cells expressing human receptors, mean of two determinations; Table 1
pKi by entry:
Just so you know, pKi here is -log10 of the concentration in molar units; reply with that number alone.

Check out these entries, answers already filled in.
Cc1onc(-c2ccc(C(F)(F)F)nc2)c1Cn1ncc(N2CC(OCC(F)F)C2)cc1=O = 7.41
Cc1ccc(-c2noc(C)c2Cn2ncc(N3CCN[C@H](C)C3)cc2=O)cn1 = 8.55
Cc1ccc(-c2noc(C)c2Cn2ncc(N3CCO[C@@H](C)C3)cc2=O)cn1 = 8.85

Then there is this molecule:
Query: Please state recorded pKi (tested on h-GABA-A α5β3γ2 (Homo sapiens, UniProt P18507+P31644)) of "Cc1ccc(-c2noc(C)c2Cn2ncc(-c3ccnc(N(C)C)c3)cc2=O)cn1"
Result: 8.59

====

Efficacy (GABA) % by entry:
# assayed-system: h-GABA-A α5β3γ2 (Homo sapiens, UniProt P18507+P31644)
# procedure-text: Two-electrode voltage clamp electrophysiology in Xenopus laevis oocytes expressing GABAA receptors, modulation of GABA EC20 current
# Format: cell-based
# Parameters: host or cells: Xenopus laevis oocytes micro-injected with RNA transcripts of the subunits
# details: % modulation of GABA EC20 = 100*(Fold increase-1); Table 1
// return numeric value only (unit: %, not printed)

CCOC1CN(c2cnn(Cc3c(-c4ccc(Cl)nc4)noc3C)c(=O)c2Cl)C1 = 135
Cc1ccc(-c2noc(C)c2Cn2ncc(N3CC(OCC4CC4)C3)cc2=O)nn1 = 126
COc1cc(-c2cnn(Cc3c(-c4ccc(C)nc4)noc3C)c(=O)c2)ccn1 = 70
Cc1onc(-c2ccc(Cl)nc2)c1Cn1ncc(N2CC3(CCC(F)CO3)C2)cc1=O (single isomer, unassigned) [Example 297] = 130
Cc1ccc(-c2noc(C)c2Cn2ncc(N(C)C3COC3)cc2=O)cn1 = 142

Query: Please state recorded Efficacy (GABA) % (tested on h-GABA-A α5β3γ2 (Homo sapiens, UniProt P18507+P31644)) of "Cc1ccc(-c2noc(C)c2Cn2ncc(N3CCC(C(F)(F)F)CC3)cc2=O)cn1"
Result: 203

Query: Please state recorded Efficacy (GABA) % (tested on h-GABA-A α5β3γ2 (Homo sapiens, UniProt P18507+P31644)) of Cc1ccc(-c2noc(CF)c2Cn2ncc(N3CC4(CCC(F)CO4)C3)cc2=O)nn1 (single isomer, unassigned)
Result: 164

Query: Please state recorded Efficacy (GABA) % (tested on h-GABA-A α5β3γ2 (Homo sapiens, UniProt P18507+P31644)) of "Cc1onc(-c2ccc(Cl)nc2)c1Cn1ncc(N2CC(OC(F)F)C2)cc1=O"
Result: 99

====

# assayed-system: h-GABA-A α5β3γ2 (Homo sapiens, UniProt P18507+P31644)
# procedure-text: Two-electrode voltage clamp electrophysiology in Xenopus laevis oocytes expressing GABAA receptors, modulation of GABA EC20 current
# Assay type: cell-based
# Set-up: host or cells: Xenopus laevis oocytes micro-injected with RNA transcripts of the subunits
# details: test compound at approx. 30 fold its Ki, GABA at EC20; Table 1
quantity-measured: Fold increase h-GABA-A α5β3γ2 oocyte

Cc1ccc(-c2noc(C)c2Cn2ncc(-c3cnn(C)c3)cc2=O)cn1 = 2.41
Cc1ccc(-c2noc(C)c2Cn2ncc(N3CC4(CCC(C)(C)O4)C3)cc2=O)nn1 = 2.05
Cc1ccc(-c2noc(C)c2Cn2ncc(N3CCC(n4c(C)nnc4C)CC3)cc2=O)cn1 = 2.75

Then there is this compound:
Query: I would be grateful if you could share the reported Fold increase h-GABA-A α5β3γ2 oocyte for "Cc1onc(-c2ccc(Cl)nc2)c1Cn1ncc(N2CCN(c3cncnc3)CC2)cc1=O" .
Result: 2.31

====

# assayed-system: h-GABA-A α5β3γ2 (Homo sapiens, UniProt P18507+P31644)
# procedure-text: Two-electrode voltage clamp electrophysiology in Xenopus laevis oocytes expressing GABAA receptors, modulation of GABA EC20 current
# Assay type: cell-based
# Parameters: host or cells: Xenopus laevis oocytes micro-injected with RNA transcripts of the subunits
# details: test compound at approx. 30 fold its Ki, GABA at EC20; Table 1
quantity-measured: Fold increase h-GABA-A α5β3γ2 oocyte
I only need the number, thanks.

Query: I would be grateful if you could share the reported Fold increase h-GABA-A α5β3γ2 oocyte for Cc1ccc(-c2noc(C)c2Cn2ncc(N3CCC4(CC3)CC(F)CCO4)cc2=O)nn1 (single isomer, unassigned) [Example 326] .
Result: 2.64

Query: I would be grateful if you could share the reported Fold increase h-GABA-A α5β3γ2 oocyte for "CCOC1CN(c2cnn(Cc3c(-c4ccc(Cl)cc4)noc3C)c(=O)c2)C1" .
Result: 1.56

Query: I would be grateful if you could share the reported Fold increase h-GABA-A α5β3γ2 oocyte for CCc1onc(-c2ccc(C)nn2)c1Cn1ncc(N2CC3(CCC(F)CO3)C2)cc1=O (single isomer, unassigned) .
Result: 2.78

Query: I would be grateful if you could share the reported Fold increase h-GABA-A α5β3γ2 oocyte for "Cc1ccc(-c2noc(C)c2Cn2ncc(N3CC(OC(C)C)C3)cc2=O)cn1" .
Result: 2.01

====

# assayed-system: h-GABA-A α5β3γ2 (Homo sapiens, UniProt P18507+P31644)
# procedure-text: [3H]flumazenil competition binding assay, membranes of HEK293 cells expressing GABAA receptors
# details: displacement of [3H]-Flumazenil 0.5 nM, HEK293 cells expressing human receptors, mean of two determinations; Table 1
quantity-measured: Ki

Cc1onc(-c2ccc(Cl)nc2)c1Cn1ncc(N2CC3(CC(F)CCO3)C2)cc1=O (single isomer, unassigned) = 27.7 nM
Cc1ccc(-c2noc(C)c2Cn2ncc(N3CC4(CCC(F)CO4)C3)cc2=O)nn1 (single isomer, unassigned) [Example 288] = 3.2 nM
Cc1onc(-c2ccc(Cl)nc2)c1Cn1ncc(N2CC(OCC(F)(F)F)C2)cc1=O = 27.6 nM
Cc1ccc(-c2noc(C)c2Cn2ncc(N3CC4(CCC(C(F)(F)F)CO4)C3)cc2=O)nn1 (single isomer, unassigned) [Example 320] = 24.8 nM
COC1CCN(c2cnn(Cc3c(-c4ccc(C)nc4)noc3C)c(=O)c2)CC1 = 19.3 nM

Query: I would be grateful if you could share the reported Ki for Cc1ccc(-c2noc(C)c2Cn2ncc(N3CC4(CCC(C(F)(F)F)CO4)C3)cc2=O)nn1 (single isomer, unassigned) [Example 321] .
Result: 6.3 nM

Query: I would be grateful if you could share the reported Ki for "COc1ncc(-c2cnn(Cc3c(-c4ccc(Cl)nn4)noc3C)c(=O)c2)cc1Cl" .
Result: 1.5 nM

Query: I would be grateful if you could share the reported Ki for "COc1cc(-c2cnn(Cc3c(-c4ccc(C)nc4)noc3C)c(=O)c2)ccn1" .
Result: 3.8 nM

Query: I would be grateful if you could share the reported Ki for "Cc1ccc(-c2noc(C)c2Cn2ncc(N3CCN(C(C)C)[C@@H](C)C3)cc2=O)cn1" .
Result: 28.8 nM

Query: I would be grateful if you could share the reported Ki for "Cc1onc(-c2ncc(C(F)(F)F)cn2)c1Cn1ncc(N2CC3(C2)CC(F)(F)CO3)cc1=O" .
Result: 3.3 nM

Query: I would be grateful if you could share the reported Ki for "Cc1ccc(-c2noc(C)c2Cn2ncc(N3CCN(C4CC4)[C@@H](C)C3)cc2=O)cn1" .
Result: 10.2 nM

Query: I would be grateful if you could share the reported Ki for "Cc1ccc(-c2noc(C)c2Cn2ncc(N3CC(C)(O)C3)cc2=O)cn1" .
Result: 7.3 nM

Query: I would be grateful if you could share the reported Ki for "COc1cc(-c2cnn(Cc3c(-c4ccc(Cl)nc4)noc3C)c(=O)c2)ccn1" .
Result: 8.3 nM

Query: I would be grateful if you could share the reported Ki for "Cc1onc(-c2ccc(Cl)nc2)c1Cn1ncc(N2CC3(CCCCO3)C2)cc1=O" .
Result: 33.6 nM

Query: I would be grateful if you could share the reported Ki for "Cc1ncc(-c2noc(C)c2Cn2ncc(N3CC4(CCCO4)C3)cc2=O)cc1F" .
Result: 61.2 nM

Query: I would be grateful if you could share the reported Ki for "Cc1ccc(-c2noc(C)c2Cn2ncc(-c3cccc(C#N)n3)cc2=O)cn1" .
Result: 40.9 nM

Query: I would be grateful if you could share the reported Ki for "CCc1cc(-c2cnn(Cc3c(-c4ccc(C)nc4)noc3C)c(=O)c2)ccn1" .
Result: 3.7 nM

Query: I would be grateful if you could share the reported Ki for "COC1CN(c2cnn(Cc3c(-c4ccc(C(F)(F)F)nn4)noc3C)c(=O)c2)C1" .
Result: 9.4 nM
